Listed here: items and their measured kon.
# Assay target: T1, Human IL-18BP (isoform A) (human, UniProt O95998 31-194, biotinylated (site not stated))
# T1 construct: also called decoy receptor
# T1 sequence: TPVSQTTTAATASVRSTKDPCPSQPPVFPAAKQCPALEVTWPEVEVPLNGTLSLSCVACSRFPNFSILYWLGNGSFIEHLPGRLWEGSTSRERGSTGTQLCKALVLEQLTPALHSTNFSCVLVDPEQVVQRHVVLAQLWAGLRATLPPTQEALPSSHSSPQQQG
# Assay comment: SPR, Biacore 8K, 37 C, biotinylated target on SA chip, single-cycle kinetics

{"Binder": "Human IL-18 T99C/P124C (ligand, Made in mammalian cells) YFGKLESKLSVIRNLNDQVLFIDQGNRPLFEDMTDSDSRDNAPRTIFIISMYKDSQPRGMAVCISVKSEKISTLSSENKIISFKEMNCPDNIKDTKSDIIFFQRSVPGHDNKMQFESSSYEGYFLASEKERDLFKLILKKEDELGDRSIMFTVQNED", "kon": "3e+06 M⁻¹ s⁻¹"}
{"Binder": "Human IL-18 hCS (ligand) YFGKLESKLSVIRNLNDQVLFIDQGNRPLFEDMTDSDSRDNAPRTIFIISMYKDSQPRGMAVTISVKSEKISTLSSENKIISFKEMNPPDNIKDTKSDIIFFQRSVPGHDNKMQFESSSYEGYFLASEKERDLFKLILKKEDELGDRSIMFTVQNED", "kon": "1.4e+06 M⁻¹ s⁻¹"}
{"Binder": "Human IL-18 S101C/T109C (ligand, Made in mammalian cells) YFGKLESKLSVIRNLNDQVLFIDQGNRPLFEDMTDSDSRDNAPRTIFIISMYKDSQPRGMAVTICVKSEKISCLSSENKIISFKEMNPPDNIKDTKSDIIFFQRSVPGHDNKMQFESSSYEGYFLASEKERDLFKLILKKEDELGDRSIMFTVQNED", "kon": "2.3e+06 M⁻¹ s⁻¹"}
{"Binder": "Human IL-18 S46C/I85C (ligand, Made in mammalian cells) YFGKLESKLCVIRNLNDQVLFIDQGNRPLFEDMTDSDSRDNAPRTIFICSMYKDSQPRGMAVTISVKSEKISTLSSENKIISFKEMNPPDNIKDTKSDIIFFQRSVPGHDNKMQFESSSYEGYFLASEKERDLFKLILKKEDELGDRSIMFTVQNED", "kon": "3.3e+06 M⁻¹ s⁻¹"}
{"Binder": "Human IL-18 S43C/S86C (ligand, Made in mammalian cells) YFGKLECKLSVIRNLNDQVLFIDQGNRPLFEDMTDSDSRDNAPRTIFIICMYKDSQPRGMAVTISVKSEKISTLSSENKIISFKEMNPPDNIKDTKSDIIFFQRSVPGHDNKMQFESSSYEGYFLASEKERDLFKLILKKEDELGDRSIMFTVQNED", "kon": "3.4e+06 M⁻¹ s⁻¹"}

Each recorded value in this set is attributed to patent US20240409599A1.
